molecular target: UniProt O60240; test: inhibitors of ABHD5-PLIN1 binding, dose response, counter-screen for ABHD5-PLIN5 interaction inhibitor project, biochemical, luminescence (AID 651672);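 note: split Gaussia luciferase complementation between ABHD5 and PLIN1 fusion fragments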
The source made the active and inactive calls. The rule behind the calls is not given here.
Labels: 1 for active, -1 for inactive

compound="CCN(CC)CCC(C)OC(c1ccccc1)c1ccccc1 (stereo not given)" assignedlabel=1
compound=CS(=O)(=O)c1ccc(C(=O)NCCN2C(=O)S/C(=C\c3cccnc3)C2=O)cc1[N+](=O)[O-] assignedlabel=1
compound=O=C1NC(=O)N(Cc2ccc(F)cc2)C(=O)/C1=C\C=C\c1ccco1 assignedlabel=1
compound="Cc1cc(C)c(NC(=O)CN2CCN3CCCC3C2)c(C)c1 (stereo not given)" assignedlabel=-1
compound=CCSc1nnc(NC(=O)c2nc(S(=O)(=O)Cc3ccc(F)cc3)ncc2Cl)s1 assignedlabel=1

* * *

target: Perilipin-1 (Homo sapiens); assay: inhibitors of ABHD5-PLIN1 binding, dose response, counter-screen for ABHD5-PLIN5 interaction inhibitor project, biochemical, luminescence (AID 651672);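 note: split Gaussia luciferase complementation between ABHD5 and PLIN1 fusion fragments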
Activity calls are given as the source filed them. No rule for the calls is given here.
Labels: active, inactive

molecule="O=C(NC1CCCCC1)C(C1CC1)n1c(=O)c(-c2ccco2)nc2ccccc21 (stereo not given)" assignedlabel=active
molecule=CC(=O)Cc1cc(O)c2ccccc2c1OC(=O)c1ccc(Br)cc1 assignedlabel=active
molecule="Cc1ccc(CC2(OCCN(C)C)CCC(C(C)(C)C)CC2)cc1 (stereo not given)" assignedlabel=active
molecule="CCC(C)NC(=O)Nc1ccc2c(c1)N(C)C(=O)c1ccccc1S2 (stereo not given)" assignedlabel=active
molecule="COc1ccc(NC(=O)C(c2ccc(C#N)cc2)n2c(=O)c(-c3ccco3)nc3ccccc32)cc1 (stereo not given)" assignedlabel=inactive

* * *

target: Perilipin-1 (Homo sapiens) (UniProt O60240); test: inhibitors of ABHD5-PLIN1 binding, dose response, counter-screen for ABHD5-PLIN5 interaction inhibitor project, biochemical, luminescence (AID 651672);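 note: split Gaussia luciferase complementation between ABHD5 and PLIN1 fusion fragments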
Sequence (O60240 whole entry, looked up, the tested form may be a part): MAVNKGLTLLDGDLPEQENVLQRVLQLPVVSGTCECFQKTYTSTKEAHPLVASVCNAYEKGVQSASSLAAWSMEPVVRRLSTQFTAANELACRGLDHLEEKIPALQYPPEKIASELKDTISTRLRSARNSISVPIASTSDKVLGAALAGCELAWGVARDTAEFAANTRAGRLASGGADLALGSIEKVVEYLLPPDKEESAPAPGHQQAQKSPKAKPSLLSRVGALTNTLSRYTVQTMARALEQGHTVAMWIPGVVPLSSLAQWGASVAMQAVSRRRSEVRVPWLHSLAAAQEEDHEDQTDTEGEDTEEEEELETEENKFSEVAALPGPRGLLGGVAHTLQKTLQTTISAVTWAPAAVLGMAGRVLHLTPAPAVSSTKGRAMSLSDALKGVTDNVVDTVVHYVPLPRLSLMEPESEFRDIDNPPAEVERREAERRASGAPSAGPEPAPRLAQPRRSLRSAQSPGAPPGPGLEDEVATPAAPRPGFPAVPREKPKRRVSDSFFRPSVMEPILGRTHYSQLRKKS
The source made the active and inactive calls. How the calls were made is not given here.
Labels: active, inactive

compound=CC(=O)C1=C(c2cccc([N+](=O)[O-])c2)N(C(C)=O)n2c(C)nnc2S1 assignedlabel=active
compound="Cc1cc(C)c2nc(NNC(=O)c3ccc(S(=O)(=O)N4CCCC(C)C4)cc3)sc2c1 (stereo not given)" assignedlabel=active
compound=CC1CCN(S(=O)(=O)c2ccc(NC(=O)Cc3ccccc3)cc2)CC1 assignedlabel=active
compound=Cc1ccc2nc3cc([N+](=O)[O-])cc([N+](=O)[O-])c3cc2c1 assignedlabel=active
compound="O=C1CC(c2ccc(Cl)cc2)Oc2ccc(Cl)cc21 (stereo not given)" assignedlabel=active
compound="N#Cc1ccc(C(C(=O)Nc2ccc3c(c2)OCCO3)n2c(=O)c(-c3ccco3)nc3ccccc32)cc1 (stereo not given)" assignedlabel=active
compound=CCN(CCCc1ccccc1)CCCc1ccccc1 assignedlabel=active
compound=N#Cc1ncc(Cc2ccccc2)nc1C#N assignedlabel=inactive
compound=CCOC(=O)c1c(NC(C)=O)sc2c1CCC(C=O)=C2Sc1ccccc1 assignedlabel=active
compound="N#Cc1ccc(C(C(=O)NC2CCCCC2)n2c(=O)c(-c3ccco3)nc3ccccc32)cc1 (stereo not given)" assignedlabel=active

* * *

molecular target: Perilipin-1 (Homo sapiens) (UniProt O60240); experiment: inhibitors of ABHD5-PLIN1 binding, dose response, counter-screen for ABHD5-PLIN5 interaction inhibitor project, biochemical, luminescence (AID 651672);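 note: split Gaussia luciferase complementation between ABHD5 and PLIN1 fusion fragments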
Active and inactive are the calls of the source. No rule for the calls is given here.
Labels: 1 (yes) = active, 0 (no) = inactive

compound="CC1CN(Cc2c(O)ccc3c2oc(=O)c2ccccc23)CC(C)O1 (stereo not given)" assignedlabel="1 (yes)"
compound=CCCCOC(=O)Nc1cc(C(=O)OC)ccc1C(=O)OC assignedlabel="1 (yes)"
compound=CSc1nnc(NC(=O)c2nc(S(=O)(=O)Cc3cccc(C)c3)ncc2Cl)s1 assignedlabel="1 (yes)"
compound="O=C(NC1CCCCC1)C(c1ccc(C(F)(F)F)cc1)n1c(=O)c(-c2ccco2)nc2ccccc21 (stereo not given)" assignedlabel="1 (yes)"
compound=CCN(CC)CCN(CC(=O)Nc1c(C)cc(C)cc1C)C(=O)c1ccccc1 assignedlabel="0 (no)"
compound="O=C(NC1CCCCC1)C(c1cccc2ccccc12)n1c(=O)c(-c2ccco2)nc2ccccc21 (stereo not given)" assignedlabel="1 (yes)"
compound="Cc1cccc(C)c1NC(=O)C(c1ccc(C#N)cc1)n1c(=O)c(-c2ccco2)nc2ccccc21 (stereo not given)" assignedlabel="1 (yes)"
compound=COc1ccc(C)c2sc(N(CCN(C)C)C(=O)/C=C/c3cccs3)nc12 assignedlabel="0 (no)"
compound=Cc1cccc(C)c1OCc1cn(CC(=O)c2ccc(O)cc2)nn1 assignedlabel="1 (yes)"
compound=CCCc1nc(C)c2c(=O)[nH]c(-c3cc(S(=O)(=O)N4CCN(CC)CC4)ccc3OCC)nn12 assignedlabel="1 (yes)"

* * *

molecular target: UniProtKB O60240; experiment: inhibitors of ABHD5-PLIN1 binding, dose response, counter-screen for ABHD5-PLIN5 interaction inhibitor project, biochemical, luminescence (AID 651672);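 note: split Gaussia luciferase complementation between ABHD5 and PLIN1 fusion fragments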
Active and inactive are the calls of the source. The rule behind the calls is not given here.
Labels: true (1) (active), false (0) (inactive)

compound=C=C1C(=O)O[C@H]2C[C@H]1[C@@H](OC(C)=O)C/C(C)=C/CC/C(C)=C\CC[C@]2(C)O assignedlabel="true (1)"
compound=c1ccc(CCC2=NCCn3cccc32)cc1 assignedlabel="false (0)"
compound=O=c1[nH]c(C2CCN(S(=O)(=O)c3ccc(S(=O)(=O)NC4CC4)cc3)CC2)nc2c1nnn2Cc1ccc(F)cc1 assignedlabel="true (1)"
compound="CC(C)(C)NC(=O)C(c1ccc(C#N)cc1)n1c(=O)c(-c2ccco2)nc2ccccc21 (stereo unspecified)" assignedlabel="true (1)"
compound="C=C[C@]1(C)C[C@@H](OC(=O)CSCCN(CC)CC)[C@]2(C)C(C)CC[C@]3(CCC(=O)[C@H]32)[C@@H](C)[C@@H]1O (stereo partly specified)" assignedlabel="false (0)"
compound=C#CCN(C[C@@H]1[C@@H](OC(=O)NC2CCCC2)[C@@H](OC(=O)NC2CCCC2)Cn2c(=O)ccc(=O)n21)S(=O)(=O)c1ccc(C)cc1 assignedlabel="true (1)"

* * *

target: Perilipin-1 (Homo sapiens); assay: inhibitors of ABHD5-PLIN1 binding, dose response, counter-screen for ABHD5-PLIN5 interaction inhibitor project, biochemical, luminescence (AID 651672);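 note: split Gaussia luciferase complementation between ABHD5 and PLIN1 fusion fragments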
The source made the active and inactive calls. The rule behind the calls is not given here.
Labels: active, inactive

molecularstring=Cc1cccc(NC(=O)CSc2nnc(-c3ccco3)c(-c3ccco3)n2)c1 assignedlabel=active
molecularstring=CSc1nnc(NC(=O)c2nc(S(=O)(=O)Cc3ccccc3F)ncc2Cl)s1 assignedlabel=active
molecularstring=C#CCN(C[C@@H]1[C@@H](OC(=O)NCCCCCC)[C@@H](OC(=O)NCCCCCC)Cn2c(=O)ccc(=O)n21)S(=O)(=O)c1ccc(C)cc1 assignedlabel=active
molecularstring=CN1CCC(=C2c3ccccc3CC(=O)c3sccc32)CC1 assignedlabel=inactive
molecularstring=Cc1ccc(C)c(/C=C/C(=O)c2ccccc(=O)c2O)c1 assignedlabel=active

* * *

biological target: Perilipin-1 (Homo sapiens) (UniProt O60240); experiment: inhibitors of ABHD5-PLIN1 binding, dose response, counter-screen for ABHD5-PLIN5 interaction inhibitor project, biochemical, luminescence (AID 651672);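 note: split Gaussia luciferase complementation between ABHD5 and PLIN1 fusion fragments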
Active and inactive are the calls of the source. No rule for the calls is given here.
Labels: True (active), False (inactive)

compound=CCN(CC)CCNC(=O)c1ccc(NC(=O)c2cn(-c3ccccc3)nc2-c2cccs2)cc1 assignedlabel=False
compound=COc1cc(OC)cc(C(=O)NC(=S)N(Cc2ccccc2)C(C)C)c1 assignedlabel=False
compound=CCCCNC(=O)Nc1ccc2c(c1)N(C)C(=O)c1ccccc1S2 assignedlabel=True
compound="O=C(NCc1ccccc1)C(c1ccccc1F)n1c(=O)c(-c2ccco2)nc2ccccc21 (centres undefined)" assignedlabel=True
compound="O=C(NCc1ccccc1)C(c1ccccc1)n1c(=O)c(-c2ccco2)nc2ccccc21 (centres undefined)" assignedlabel=True
compound="COc1ccc(C(C(=O)NC(C)(C)C)n2c(=O)c(-c3ccco3)nc3ccccc32)cc1 (centres undefined)" assignedlabel=True
compound="COc1ccc(NC(=O)C(c2cccc3ccccc23)n2c(=O)c(-c3ccco3)nc3ccccc32)cc1 (centres undefined)" assignedlabel=False
compound=COc1cc(/C=C/C(=O)c2ccc(Cl)s2)cc(OC)c1O assignedlabel=True
compound=C#CCN(C[C@@H]1[C@@H](OC(=O)NCC2CCCCC2)[C@@H](OC(=O)NCC2CCCCC2)Cn2c(=O)ccc(=O)n21)S(=O)(=O)c1ccc(C)cc1 assignedlabel=True

* * *

Let's look at some molecules and their measured IC50.
molecular target: Perilipin-1 (Homo sapiens); test: inhibitors of ABHD5-PLIN1 binding, dose response, counter-screen for ABHD5-PLIN5 interaction inhibitor project, biochemical, luminescence (AID 651672);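 note: split Gaussia luciferase complementation between ABHD5 and PLIN1 fusion fragments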
readoutType: IC50

molecule="CC1=CC(C)(C)Nc2ccc(OC(=O)CN3C(=O)C4CCCCC4C3=O)cc21 (centres undefined)" readouttype=IC50 result="2.3 µM"
molecule="CC(C)(C)NC(=O)C(c1cc2ccccc2o1)n1c(=O)c(-c2ccco2)nc2ccccc21 (centres undefined)" readouttype=IC50 result="1.93 µM"
molecule="COc1ccc(NC(=O)C(c2ccccc2)n2c(=O)c(-c3ccco3)nc3ccccc32)cc1 (centres undefined)" readouttype=IC50 result="8.47 µM"
molecule=O=C(/C=C/c1ccc2c(c1)OCCCO2)c1ccccc1O readouttype=IC50 result="5.52 µM"
molecule=C#CCN(C[C@@H]1[C@@H](OC(=O)Nc2cccs2)[C@@H](OC(=O)Nc2cccs2)Cn2c(=O)ccc(=O)n21)S(=O)(=O)c1ccc(C)cc1 readouttype=IC50 result="2.33 µM"
molecule="O=C(NCc1ccccc1)C(C1CC1)n1c(=O)c(-c2ccco2)nc2ccccc21 (centres undefined)" readouttype=IC50 result="6.05 µM"
molecule="CC(O)CC(=O)OC[C@]12CC[C@H]3[C@@](C)(CC[C@H]4C(C)(C)CCC[C@]34C)[C@@H]1CC(C1=CC(=O)OC1O)O2 (some centres undefined)" readouttype=IC50 result="1.25 µM"
molecule="CCCCCNC(=O)C(c1ccccc1F)n1c(=O)c(-c2ccco2)nc2ccccc21 (centres undefined)" readouttype=IC50 result="1.09 µM"
molecule=CC(=O)Oc1c(Cl)cc(N(C(C)=O)S(=O)(=O)c2ccccc2)c2ccccc12 readouttype=IC50 result="3.88 µM"
